These entries and their values trace back to PubChem BioAssay (NCI).

system: MOLT-4 leukemia; assay: NCI tumour cell line growth inhibition, 48 h
Can you tell me TGI for the items I'm about to list?

# COMPOUND, TGI
measured = [
    ("O=S(=O)(O)c1cc(S(=O)(=O)O)c2c(Nc3ccnc4ccccc34)ccc(S(=O)(=O)O)c2c1", "> 100 µM"),
]

Give TGI for each of the items listed below.
1. O=C(OCC1OC(n2cc(C(F)(F)F)c(=O)[nH]c2=O)CC1OC(=O)c1ccc([N+](=O)[O-])cc1)c1ccc([N+](=O)[O-])cc1 (centres undefined)
2. COc1ccc(/C=N/N/C(O)=c2/sc(=C(C#N)C#N)n(-c3ccccc3)c2=N)cc1
3. O=[N+]([O-])/C(C(Cl)=C(Cl)Cl)=C(/Br)SCc1ccccc1

Return:
["> 100 µM", "> 100 µM", "1.03 µM"]

###

system: HL-60(TB) leukemia; experiment: NCI tumour cell line growth inhibition, 48 h
Exercise: for every item that follows, state its recorded TGI.

# count of solved cases: 5
# COMPOUND, RESULT
data = [
    ("COc1cc(/C=C2\\C(=O)Nc3ccccc32)cc(OC)c1O", "11.1 µM"),
    ("COc1cccc2c1O/C(=C\\c1ncc([N+](=O)[O-])n1C)C2=O", "1.35 µM"),
    ("CC(=O)Nc1ccc(-c2nnc(SCC(=O)Nc3ccc(Cl)cc3Cl)o2)cc1", "> 100 µM"),
    ("CCN(CC)CCN1C(=O)CC2[C@@H]3CCc4cc(OC)ccc4C3CC[C@]2(C)C1=O (stereo partly specified)", "36.7 µM"),
    ("CCNc1cnc2c(n1)c(=O)n(C)c(=O)n2C", "> 100 µM"),
]

Batch: TGI for all items listed.
1. C=CCc1cccc2cc(C(=O)NC3CCCCC3)c(=N)oc12
2. O=S(=O)(O)c1cc(S(=O)(=O)O)c2c(Nc3ccnc4ccccc34)ccc(S(=O)(=O)O)c2c1
3. O=c1ncc(I)cn1C1CC(O)C(CO)O1 (stereo unspecified)
4. CC/C=C/C(CC)C/C(C)=C\[C@]1(CC)C[C@H](CC)[C@H](CC(=O)O)OO1 (stereo partly specified)
5. COC1=CC(=O)c2c(cc(COP(N)(=O)N(CCBr)CCBr)n2C)C1=O (stereo unspecified)
6. S=C(Nc1ccccc1)c1ccc(CN2CCCCC2)s1
7. NS(=O)(=O)c1cc2c(cc1Cl)NC(/C(=N/NC(=O)c1ccncc1)C1C(=O)NC(=O)NC1=O)=NS2(=O)=O
8. CSc1cc(-c2cc3ccccc3o2)oc(=O)c1C#N

Return:
1. > 100 µM
2. > 100 µM
3. > 3250 µM
4. 2.27 µM
5. 3.64 µM
6. 34.5 µM
7. > 100 µM
8. > 100 µM

# batch: return TGI for each of the 7 compounds below
1. CC(=O)Nc1ccc(-c2nnc(SCC(=O)Nc3ccccc3)o2)cc1
2. Cc1ccc(CN(C)c2ccc(CO)c(Cl)c2)cc1
3. CC1OC(O[C@H]2CC[C@]3(C)[C@H]4CC=C5[C@@H]6[C@@H](C)[C@H](C)CC[C@]6(C(=O)OC6OC(CO)C(O)C(O)C6O)CC[C@@]5(C(=O)O)[C@]4(C)CC[C@H]3C2(C)C)C(O)C(O)C1O (stereo partly specified)
4. COC(=O)C(Cc1ccc(OC)cc1O)NC(=O)OC(C)(C)C (stereo unspecified)
5. CC1(C)Oc2ccccc2OC1O (stereo unspecified)
6. N#CNCC(COCc1ccccc1)c1ccccc1 (stereo unspecified)
7. O=C(O)c1ccc(NCc2nc3cc(Cl)c(Cl)cc3[nH]2)cc1

Return:
["> 100 µM", "56 µM", "> 100 µM", "> 100 µM", "> 100 µM", "> 100 µM", "> 100 µM"]

Enquiry: What value of TGI on HL-60(TB) leukemia does CN(C)c1ccc(/C=C2\C[C@H]3[C@@H]4CC=C5C[C@@H](O)CC[C@]5(C)[C@H]4CC[C@]3(C)C2=O)cc1 have?
Return: > 100 µM
